# EC50 per record follows
# Test system: Human Small Cell Lung Cancer H69
# testDetails: Cell proliferation experiment (Alarm blue), H69
# Type: cell-based
# condition: Homo sapiens, NCI-H69; H69 cells, 72 h culture; read-out: Anti cell proliferative activity EC50, H69
assayMetric: EC50

{"compound": "CNC(=O)c1ccccc1Nc1nc(Nc2ccc(N3CCN(C(=O)NC4CCN(CCNCCC#Cc5ccc6c(c5)CN(C5CCC(=O)NC5=O)C6=O)CC4)CC3)cc2)ncc1Cl (stereo not drawn) [UB-181240]", "reported": "> 1000 nM"}
{"compound": "CNC(=O)c1ccccc1Nc1nc(Nc2ccc(N3CCN(C(=O)CNCCC#Cc4ccc5c(c4)CN(C4CCC(=O)NC4=O)C5=O)CC3)cc2)ncc1Cl (stereo not drawn) [UB-181272]", "reported": "> 1000 nM"}
{"compound": "CNC(=O)c1ccccc1Nc1nc(Nc2ccc(N3CCN(C(=O)NC4CCN(C(=O)CNCCC#Cc5ccc6c(c5)CN(C5CCC(=O)NC5=O)C6=O)CC4)CC3)cc2)ncc1Cl (stereo not drawn) [UB-181235]", "reported": "> 1000 nM"}

----------
# EC50 per record follows
# System: Human Small Cell Lung Cancer H69
# testDetails: Cell proliferation experiment (Alarm blue), H69
# Type: cell-based
# condition: Homo sapiens, NCI-H69; H69 cells, 72 h culture; read-out: Anti cell proliferative activity EC50, H69

{"compound": "CNC(=O)c1ccccc1Nc1nc(Nc2ccc(N3CCC(C(=O)N4CCC5(CC4)CC(NCCC#Cc4ccc6c(c4)CN(C4CCC(=O)NC4=O)C6=O)C5)CC3)cc2)ncc1Cl (stereo not drawn)", "EC50": "> 1 µM"}
{"compound": "NC(=O)c1ccccc1Nc1nc(Nc2ccc(N3CCN(C(=O)NC4CCN(CCNCCC#Cc5ccc6c(c5)CN(C5CCC(=O)NC5=O)C6=O)CC4)CC3)cc2)ncc1Cl (stereo not drawn)", "EC50": "> 1 µM"}
{"compound": "CNC(=O)c1ccccc1Nc1nc(Nc2ccc(N3CCN(C(=O)N[C@H]4CC[C@@H](N(CCC#Cc5ccc6c(c5)CN(C5CCC(=O)NC5=O)C6=O)C(=O)OCc5ccc(NC(=O)[C@H](CC(N)=O)NC(=O)[C@H](C)NC(=O)[C@H](C)NC(=O)COCCOCCOCCOC)cc5)CC4)CC3)cc2)ncc1Cl (stereo partly drawn)", "EC50": "> 1 µM"}

----------
# EC50 per record follows
# Test system: human gastric carcinoma cells N87
# testDetails: Cell proliferation experiment (Alarm blue), N87
# Format: cell-based
# condition: N87 cells, 72 h culture; read-out: Anti cell proliferative activity EC50, N87
assayMetric: EC50

{"compound": "CNC(=O)c1ccccc1Nc1nc(Nc2ccc(N3CCN(C(=O)N[C@H]4CC[C@@H](N(CCC#Cc5ccc6c(c5)CN(C5CCC(=O)NC5=O)C6=O)C(=O)OC(C)C(C)SSC[C@H](NC(=O)CC[C@H](NC(=O)c5ccc(NCc6cnc7nc(N)[nH]c(=O)c7n6)cc5)C(=O)O)C(=O)N[C@H](Cc5ccccc5)C(=O)N[C@H]5CSSC[C@@H](C(=O)N[C@H](CO)[C@@H](C)O)NC(=O)[C@H]([C@@H](C)O)NC(=O)[C@H](CCCCN)NC(=O)[C@@H](Cc6c[nH]c7ccccc67)NC(=O)[C@H](Cc6ccccc6)NC5=O)CC4)CC3)cc2)ncc1Cl (stereo partly drawn) [UB-181266]", "targetUnderTest": "human gastric carcinoma cells N87", "assayMetric": "EC50", "reported": "> 1 µM"}
{"compound": "N=C(N)NCCC[C@H](NC(=O)[C@H](CC(=O)O)NC(=O)CC[C@H](NC(=O)c1ccc(NCc2cnc3nc(N)[nH]c(=O)c3n2)cc1)C(=O)O)C(=O)N[C@@H](CC(=O)O)C(=O)N[C@@H](CC(=O)O)C(=O)N[C@@H](CSSCCOC(=O)N(CCC#Cc1ccc2c(c1)CN(C1CCC(=O)NC1=O)C2=O)C1CCC(NC(=O)N2CCN(c3ccc(Nc4ncc(Cl)c(Nc5ccccc5C(N)=O)n4)cc3)CC2)CC1)C(=O)O (stereo partly drawn) [UB-181327]", "targetUnderTest": "human gastric carcinoma cells N87", "assayMetric": "EC50", "reported": "> 1 µM"}
{"compound": "CC[C@@H]1C(=O)N(C)c2cnc(Nc3ccc(-c4cn([C@H]5CC[C@@H](N(CCOCCC#Cc6cccc7c6CN(C6CCC(=O)NC6=O)C7=O)C(=O)OC(C)C(C)SSC[C@H](NC(=O)CC[C@H](NC(=O)c6ccc(NCc7cnc8nc(N)[nH]c(=O)c8n7)cc6)C(=O)O)C(=O)N[C@H](Cc6ccccc6)C(=O)N[C@H]6CSSC[C@@H](C(=O)N[C@H](CO)[C@@H](C)O)NC(=O)[C@H]([C@@H](C)O)NC(=O)[C@H](CCCCN)NC(=O)[C@@H](Cc7c[nH]c8ccccc78)NC(=O)[C@H](Cc7ccccc7)NC6=O)CC5)nn4)cc3OC)nc2N1C1CCCC1 (stereo partly drawn) [UB-181268]", "targetUnderTest": "human gastric carcinoma cells N87", "assayMetric": "EC50", "reported": "> 1 µM"}
